Tested on: BDF1 mice, P388 leukemia ip, median survival T/C
Experiment: NCI In Vivo Anticancer Drug Screen. Data for tumor model P388 Leukemia (intraperitoneal) in B6D2F1 (BDF1) mice
Details: endpoint: median survival time; dose: 1.56 mg/kg/injection; schedule: Q01DX009 (ip); vehicle: saline; higher = longer survival
Inconclusive results and toxic doses are left out.
experimental-readout: T/C

For the compound shown here, O=C1NC2(CCCCC2)C(=O)N1CCN(CCCl)CCCl , give the reported T/C. 222 % of control

For the compound shown here, CN(C)c1ccc(-c2nc3ccccn3c2N)cc1 , give the reported T/C. 105 % of control

For the compound shown here, CC1C[N-]CC(C)C1.CC1C[N-]CC(C)C1.[Cl][Pt+2]([Cl])([Cl])[Cl] (centres undefined) , give the reported T/C. 95 % of control

For the compound shown here, COc1cc(N2CCOCC2)ccc1N , give the reported T/C. 154 % of control
